# PROCEDURE_TEXT: Plasma concentration in CD-1 mouse at 30 mg/kg, po measured 75 mins post dosage
# Format: ADME, organism-based
Known concentration at 1.25 h of a selection of compounds
Response body: numeric value in nM, unit text excluded.

- CN1C(C)(C)CC(Nc2cc(F)c(S(=O)(=O)Nc3nccs3)cc2Cl)CC1(C)C: 1100

With those in mind, consider the next compound.
## Task Find the measured concentration at 1.25 h of `O=S(=O)(Nc1nccs1)c1cc(Cl)c(NCC2(CN3CCCC3)CC2)cc1F` and report it.
## Result 1200

Values from ChEMBL document CHEMBL4007444
